- System: C. parapsilosis
- procedure details: Minimum inhibitory concentration, RPMI medium
- Type: cell-based
- measurement setup: banded MIC grade
readout label: MIC grade, C. PARAPSILOSIS, RPMI media

Below: 3 compounds and their reported MIC grade, C. PARAPSILOSIS, RPMI media.
INSERT INTO results (compound, assayed_target, readout_label, observed_value) VALUES
  ('NC1=NN=C(CCCCc2ccccc2)CS1', 'C. parapsilosis', 'MIC grade, C. PARAPSILOSIS, RPMI media', '4 (4: <1 mg/L)'),
  ('NC1=NN=C(c2ccc(C3CCCCC3)cc2)CS1', 'C. parapsilosis', 'MIC grade, C. PARAPSILOSIS, RPMI media', '1 (1: ≥20 mg/L)'),
  ('CCCCOc1cccc(C2=NN=C(N)SC2)c1', 'C. parapsilosis', 'MIC grade, C. PARAPSILOSIS, RPMI media', '1 (1: ≥20 mg/L)');

Query MIC grade, C. PARAPSILOSIS, RPMI media on C. parapsilosis for NC1=NN=C(CCCCCOc2ccc(F)cc2)CS1
4 (4: <1 mg/L)
